Quick reference: pIC50 of the listed items.
# tested-target: Glutamate receptor 2 (Homo sapiens, UniProt P42262)
# Sequence (P42262 whole entry): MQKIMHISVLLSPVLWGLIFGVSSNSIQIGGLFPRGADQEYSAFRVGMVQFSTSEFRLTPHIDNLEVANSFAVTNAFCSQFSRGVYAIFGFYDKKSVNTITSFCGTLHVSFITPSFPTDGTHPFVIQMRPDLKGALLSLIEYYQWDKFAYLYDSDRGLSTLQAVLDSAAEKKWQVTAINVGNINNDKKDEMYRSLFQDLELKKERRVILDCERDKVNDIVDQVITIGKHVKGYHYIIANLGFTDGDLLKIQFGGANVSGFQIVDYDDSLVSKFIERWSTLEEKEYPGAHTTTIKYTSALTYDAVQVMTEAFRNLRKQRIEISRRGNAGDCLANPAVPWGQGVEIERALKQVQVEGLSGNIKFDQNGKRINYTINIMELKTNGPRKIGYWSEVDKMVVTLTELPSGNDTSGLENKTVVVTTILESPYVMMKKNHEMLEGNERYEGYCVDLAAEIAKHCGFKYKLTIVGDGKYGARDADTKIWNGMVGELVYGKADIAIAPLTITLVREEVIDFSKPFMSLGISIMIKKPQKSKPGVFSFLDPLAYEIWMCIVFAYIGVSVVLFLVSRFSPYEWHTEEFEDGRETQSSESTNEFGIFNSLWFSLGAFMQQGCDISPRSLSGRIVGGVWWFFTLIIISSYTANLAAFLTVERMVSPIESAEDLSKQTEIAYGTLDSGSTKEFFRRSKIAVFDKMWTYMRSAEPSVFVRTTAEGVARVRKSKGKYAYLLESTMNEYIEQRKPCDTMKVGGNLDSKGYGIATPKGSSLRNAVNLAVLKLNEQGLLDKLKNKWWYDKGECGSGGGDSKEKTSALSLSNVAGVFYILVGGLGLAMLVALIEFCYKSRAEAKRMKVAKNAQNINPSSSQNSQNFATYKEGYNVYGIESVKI
# test: Displacement of [3H]-HBT1 from His-tagged GluA2-AMPA (unknown origin) receptor expressed in CHO cells in presence of glutamate by scintillation proximity assay
# Type: cell-based
pIC50: −log10 of the molar value.
readout-label: pIC50

CCN(Cc1cc2c(=O)n(CCC#N)ccc2s1)c1ccc(F)cc1 : 6.21
Cc1cn(CCC#N)c(=O)c2cc(Cn3nc(Cl)cc3Cl)nn12 : < 4.52
Cc1cn([C@@H](C)CC#N)c(=O)c2cc(Cn3nc(C(F)F)cc3Cl)nn12 : < 4.52
CCN(Cc1cc2ccn(CC#N)c(=O)c2s1)c1ccc(F)cc1 : < 4.52
Cc1cn(CCC#N)c(=O)c2cc(Cn3nc(C(F)F)cc3Cl)nn12 : < 4.52
Cc1cn(CCC#N)c(=O)c2cc(Cn3nc(C(F)(F)F)cc3Cl)nn12 : 4.72
CCN(Cc1cc2c(=O)n(CCC#N)ccn2n1)c1ccc(F)cc1 : 4.66
CCN(Cc1cc2c(=O)n(CCC#N)cc(C)n2n1)c1ccc(F)cc1 : 4.66
CCN(Cc1cc2ccn(CCC#N)c(=O)c2s1)c1ccc(F)cc1 : < 4.52
Cc1cn([C@H](C)CC#N)c(=O)c2cc(Cn3nc(C(F)F)cc3Cl)nn12 : < 4.52
CCN(Cc1cc2cc(C)n(CCC#N)c(=O)c2s1)c1ccc(F)cc1 : 6.21
CCN(Cc1cc2c(C)cn(CCC#N)c(=O)c2s1)c1ccc(F)cc1 : < 4.52
CCc1cn(CCC#N)c(=O)c2sc(CN(CC)c3ccc(F)cc3)cc12 : < 4.52
Cc1cn(CCC#N)c(=O)c2cc(Cn3nc(Br)cc3Cl)nn12 : < 4.52
Cc1cc(Cl)n(Cc2cc3c(=O)n(CCC#N)cc(C)n3n2)n1 : < 4.52

====

# test: AUC in rat at 10 mg/kg, po by LC-MS/MS analysis
# Format: ADME, organism-based
# Design: dose 10 mg/kg, route po
# particulars: in vivo
readout-label: AUC (ng·h/mL)

Cc1cn([C@H](C)CC#N)c(=O)c2cc(Cn3nc(C(F)F)cc3Cl)nn12 : 9140

====

# test: Drug concentration in rat brain at 3 mg/kg, po after 2 hrs by LC-MS/MS analysis
# Type: ADME, organism-based
# particulars: read-out: Ct
readout-label: concentration at 2 h (ng/g)

Cc1cn([C@H](C)CC#N)c(=O)c2cc(Cn3nc(C(F)F)cc3Cl)nn12 : 146

====

# test: Drug concentration in rat brain at 3 mg/kg, po after 1 hrs by LC-MS/MS analysis
# Type: ADME, organism-based
# particulars: read-out: Ct
readout-label: concentration at 1 h (ng/g)

Cc1cn([C@H](C)CC#N)c(=O)c2cc(Cn3nc(C(F)F)cc3Cl)nn12 : 187

====

# tested-target: Glutamate receptor 2 (Homo sapiens)
# test: Displacement of [3H]-HBT1 from GluA2-AMPA receptor (unknown origin) in presence of glutamate by scintillation proximity assay
pIC50: −log10 of the molar value.
readout-label: pIC50

CCN(Cc1ccc(C(=O)N2CCC[C@@H]2C#N)s1)c1ccc(F)cc1 : 5.92
N#C[C@H]1C[C@H]1c1c(C(F)(F)F)sc2nc(Cn3nc(C(F)(F)F)cc3Cl)cc(=O)n12 : 6.06
N#C[C@H]1C[C@H]1c1c(Cl)ccc2nc(Cn3nc(C(F)(F)F)cc3Cl)cc(=O)n12 : 6.42

====

Quick reference: EC50 of the listed items.
# tested-target: Glutamate receptor 2 (Homo sapiens, UniProt P42262)
# test: Positive allosteric modulator activity at GluA2-AMPA receptor (unknown origin) by FLIPR assay
readout-label: EC50

CCN(Cc1ccc(C(=O)N2CCC[C@@H]2C#N)s1)c1ccc(F)cc1 : > 30 µM
N#C[C@H]1C[C@H]1c1c(Cl)ccc2nc(Cn3nc(C(F)(F)F)cc3Cl)cc(=O)n12 : > 30 µM
N#C[C@H]1C[C@H]1c1c(C(F)(F)F)sc2nc(Cn3nc(C(F)(F)F)cc3Cl)cc(=O)n12 : 24 µM

====

# test: Cmax in rat at 1 mg/kg, iv by LC-MS/MS analysis
# Assay type: ADME, organism-based
# Design: dose 1 mg/kg, route iv
# particulars: in vivo
readout-label: Cmax (ng/mL)

Cc1cn([C@H](C)CC#N)c(=O)c2cc(Cn3nc(C(F)F)cc3Cl)nn12 : 1910

====

# tested-target: Ionotropic glutamate receptor NMDA 1/2D (Homo sapiens, UniProt O15399+Q05586)
# Sequence (O15399 whole entry, other chains not shown): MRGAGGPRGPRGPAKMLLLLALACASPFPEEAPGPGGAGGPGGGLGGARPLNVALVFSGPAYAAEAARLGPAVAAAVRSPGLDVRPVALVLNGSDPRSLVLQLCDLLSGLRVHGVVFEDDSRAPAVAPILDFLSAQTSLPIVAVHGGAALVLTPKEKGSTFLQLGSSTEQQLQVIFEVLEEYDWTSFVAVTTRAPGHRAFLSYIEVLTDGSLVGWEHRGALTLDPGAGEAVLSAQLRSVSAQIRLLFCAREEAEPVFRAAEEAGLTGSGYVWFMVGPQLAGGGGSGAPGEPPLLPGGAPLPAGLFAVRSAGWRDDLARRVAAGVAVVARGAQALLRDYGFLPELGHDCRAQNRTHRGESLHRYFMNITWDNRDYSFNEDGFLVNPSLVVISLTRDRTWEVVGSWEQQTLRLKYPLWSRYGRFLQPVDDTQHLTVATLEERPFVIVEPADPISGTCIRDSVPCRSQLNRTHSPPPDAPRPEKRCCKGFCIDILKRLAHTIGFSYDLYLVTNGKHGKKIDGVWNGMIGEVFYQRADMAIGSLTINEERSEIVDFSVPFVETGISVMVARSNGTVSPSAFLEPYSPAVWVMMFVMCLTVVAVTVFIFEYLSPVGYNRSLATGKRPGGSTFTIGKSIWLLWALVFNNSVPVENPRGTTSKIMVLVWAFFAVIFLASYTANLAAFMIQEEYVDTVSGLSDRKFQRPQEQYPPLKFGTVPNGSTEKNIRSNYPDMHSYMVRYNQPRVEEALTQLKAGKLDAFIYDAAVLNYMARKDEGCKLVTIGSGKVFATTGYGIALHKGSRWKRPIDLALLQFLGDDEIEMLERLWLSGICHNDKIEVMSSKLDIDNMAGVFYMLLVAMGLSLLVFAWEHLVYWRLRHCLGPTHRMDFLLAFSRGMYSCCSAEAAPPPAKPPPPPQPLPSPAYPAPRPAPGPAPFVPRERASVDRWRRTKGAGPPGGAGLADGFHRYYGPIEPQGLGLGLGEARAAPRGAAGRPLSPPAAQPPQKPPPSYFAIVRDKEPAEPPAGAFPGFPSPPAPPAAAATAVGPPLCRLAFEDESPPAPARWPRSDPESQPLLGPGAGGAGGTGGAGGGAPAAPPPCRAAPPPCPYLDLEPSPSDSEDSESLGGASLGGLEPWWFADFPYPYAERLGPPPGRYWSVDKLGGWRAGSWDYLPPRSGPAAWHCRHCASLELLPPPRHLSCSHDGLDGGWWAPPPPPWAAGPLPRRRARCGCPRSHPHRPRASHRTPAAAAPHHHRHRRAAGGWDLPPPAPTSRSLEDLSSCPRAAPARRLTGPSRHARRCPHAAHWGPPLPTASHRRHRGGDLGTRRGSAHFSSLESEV
# test: Positive allosteric modulator activity at GluN1a/GluN2D (unknown origin) expressed in CHO cells in presence of glutamate by Ca2+ influx assay
pEC50: −log10 of the molar value.
readout-label: pEC50

Cc1cn([C@H](C)CC#N)c(=O)c2cc(Cn3nc(C(F)F)cc3Cl)nn12 : < 4.52

====

# test: Volume of distribution at steady state in rat at 1 mg/kg, iv by LC-MS/MS analysis
# Format: ADME, organism-based
# particulars: in vivo, read-out: Vdss
readout-label: Vd

Cc1cn([C@H](C)CC#N)c(=O)c2cc(Cn3nc(C(F)F)cc3Cl)nn12 : 0.657 L/kg

====

# tested-target: Glutamate NMDA receptor; GRIN1/GRIN2A (Homo sapiens, UniProt Q05586+Q12879)
# test: Positive allosteric modulator activity at GluN1a/GluN2A (unknown origin) expressed in CHO cells in presence of glutamate by Ca2+ influx assay
pEC50: −log10 of the molar value.
# binarize pEC50: threshold 6 inclusive, high side True, low side False

Cc1cn(CCC#N)c(=O)c2cc(Cn3nc(Cl)cc3Cl)nn12 : False
CCN(Cc1cc2c(=O)n(CCC#N)ccn2n1)c1ccc(F)cc1 : False
Cc1cn(CCC#N)c(=O)c2cc(Cn3nc(C(F)F)cc3Cl)nn12 : False
CCN(Cc1cc2cc(C)n(CCC#N)c(=O)c2s1)c1ccc(F)cc1 : True
CCN(Cc1cc2c(=O)n(CCC#N)cc(C)n2n1)c1ccc(F)cc1 : True

====

# tested-target: Glutamate NMDA receptor; GRIN1/GRIN2A (Homo sapiens, UniProt Q05586+Q12879)
# test: Positive allosteric modulator activity at GluN1a/GluN2A (unknown origin) expressed in CHO cells assessed as maximum potentiation at 30 uM in presence of glutamate by Ca2+ influx assay relative to control
# Format: cell-based
# particulars: filed as positive allosteric modulator
readout-label: %max (%)

Cc1cn(CCC#N)c(=O)c2cc(Cn3nc(C(F)(F)F)cc3Cl)nn12 : 420
Cc1cn(CCC#N)c(=O)c2cc(Cn3nc(C(F)F)cc3Cl)nn12 : 220
CCc1cn(CCC#N)c(=O)c2sc(CN(CC)c3ccc(F)cc3)cc12 : 410
CCN(Cc1cc2ccn(CCC#N)c(=O)c2s1)c1ccc(F)cc1 : 450
CCN(Cc1cc2c(=O)n(CCC#N)cc(C)n2n1)c1ccc(F)cc1 : 420
Cc1cn([C@H](C)CC#N)c(=O)c2cc(Cn3nc(C(F)F)cc3Cl)nn12 : 350
CCN(Cc1cc2c(=O)n(CCC#N)ccc2s1)c1ccc(F)cc1 : 320
CCN(Cc1cc2ccn(CC#N)c(=O)c2s1)c1ccc(F)cc1 : 230
CCN(Cc1cc2c(C)cn(CCC#N)c(=O)c2s1)c1ccc(F)cc1 : 480
CCN(Cc1cc2cc(C)n(CCC#N)c(=O)c2s1)c1ccc(F)cc1 : 440
CCN(Cc1cc2c(=O)n(CCC#N)ccn2n1)c1ccc(F)cc1 : 420
Cc1cn(CCC#N)c(=O)c2cc(Cn3nc(Br)cc3Cl)nn12 : 160

====

# test: 1-Octanol/aqueous buffer distribution coefficient, log D of the compound at pH 7.4 by HPLC analysis
# Type: physicochemical
Quick reference: logD of the listed items.
readout-label: logD

CCN(Cc1ccc(C(=O)N2CCC[C@@H]2C#N)s1)c1ccc(F)cc1 : 2.06
Cc1cn(CCC#N)c(=O)c2cc(Cn3nc(C(F)(F)F)cc3Cl)nn12 : 2.32
CCN(Cc1cc2ccn(CCC#N)c(=O)c2s1)c1ccc(F)cc1 : 2.68
CCN(Cc1cc2c(C)cn(CCC#N)c(=O)c2s1)c1ccc(F)cc1 : 3.01
CCN(Cc1cc2ccn(CC#N)c(=O)c2s1)c1ccc(F)cc1 : 2.63
Cc1cn(CCC#N)c(=O)c2cc(Cn3nc(Cl)cc3Cl)nn12 : 2.07
Cc1cn([C@H](C)CC#N)c(=O)c2cc(Cn3nc(C(F)F)cc3Cl)nn12 : 2.06
Cc1cn(CCC#N)c(=O)c2cc(Cn3nc(Br)cc3Cl)nn12 : 2.16
CCN(Cc1cc2cc(C)n(CCC#N)c(=O)c2s1)c1ccc(F)cc1 : 2.95
